The reported measurements were obtained from patent US20110172416A1.

- assayed_system: activated factor IIa (thrombin) (Homo sapiens, UniProt P00734)
- method_notes: Measurement of activated factor II (FIIa, thrombin)-inhibitory activity (chromogenic substrate S-2238)
- measurement_setup: negative logarithmic value of concentration suppressing reaction rate of control to 50%
Answer each item with its documented IC50.

compound	IC50
CC(=N)N1CCC(Oc2ccc(COC(=O)c3ccc4c(c3)CN(C(=N)N)CC4)cc2)CC1 [compound of Ex. 15, ditrifluoroacetate]	> 100 µM
N=C(N)N1Cc2ccc(C(=O)OCC3CCN(c4ccncc4)CC3)cc2C1 [compound of Ex. 7, ditrifluoroacetate]	> 100 µM
N=C(N)N1CCc2ccc(COC(=O)C3CCN(c4ccncc4)CC3)cc2C1 [compound of Ex. 3, ditrifluoroacetate]	63.1 µM
CC(=N)N1CCC(Oc2ccc(C(=O)OCc3ccc4c(c3)CN(C(=N)N)CC4)cc2)CC1	> 100 µM
COCC1(C(=O)Oc2ccc3c(c2)CN(C(=N)N)CC3)CCN(c2ccncc2)CC1 [compound of Ex. 6, ditrifluoroacetate]	39.8 µM
N=C(N)N1CCc2ccc(OC(=O)C3(COCc4ccccc4)CCN(c4ccncc4)CC3)cc2C1 [compound of Ex. 5, ditrifluoroacetate]	20 µM

Give IC50 for each listed item.
1. N=C(N)N1CCc2ccc(C(=O)OCC3CCN(c4ccncc4)CC3)cc2C1 [compound of Ex. 2, ditrifluoroacetate]
2. N=C(N)N1Cc2ccc(COC(=O)C3CCN(c4ccncc4)CC3)cc2C1 [compound of Ex. 8, ditrifluoroacetate]

Found:
> 100 µM
> 100 µM
